# Test system: IGROV-1
# assay-text: NCI tumour cell line growth inhibition, 48 h
Calls of active or inactive are those of the source. Cut-off read from the data, not from the text of the source: active = GI50 up to about 1.1 µM and inactive = higher. Square brackets hold non-standard residues; d marks the D form. Peptide text beside a SMILES is read from it. * marks the point of attachment. AllylGly = C=CC[CH](N)C(=O)O; Boc = CC(C)(C)OC(=O)*; OtBu = CC(C)(C)O*
Recorded GI50 by entry

compound: CC1(C)CC[C@]2(C(=O)O)CC[C@]3(C)C(=CC[C@@H]4[C@@]5(C)C[C@H](O)[C@H](O)[C@@](C)(CO)C5=CC[C@]43C)[C@@H]2C1
GI50: 31.1 µM (inactive)
--
compound: NS(=O)(=O)c1ccc(NC(=O)c2cc([N+](=O)[O-])cc([N+](=O)[O-])c2)cc1
GI50: 23.6 µM (inactive)
--
compound: O=C1C=C(Nc2ccc(Br)cc2)c2ccccc2C1=O
GI50: 14.8 µM (inactive)
--
compound: CC1(C)CN=C(Nc2ccc(F)c(F)c2)S1
GI50: > 100 µM (inactive)
--
compound: O=C1c2ccccc2C(=O)N1CCc1nc(-c2ccccc2)c[nH]1
GI50: > 100 µM (inactive)
--
compound: Cc1cnc2sn(-c3ccc(Br)cc3)c(=O)c2c1
GI50: 53.6 µM (inactive)
--
compound: COC(=O)c1c(C)cccc1C1CN=NC12Cc1cc(C)cc(C)c1C2=O (stereo not given)
GI50: 57.7 µM (inactive)
--
compound: CC#CC#C/C=C1/O[C@]2(CCC(OC(C)=O)CO2)[C@@H]2O[C@H]12 (stereo not given in full)
GI50: 50.7 µM (inactive)
--
compound: CC(C)[C@@H](COC(C)(C)C)/N=C/N1CCc2c([nH]c3ccccc23)C1
GI50: > 100 µM (inactive)
--
compound: COc1ccc(S(=O)(=O)NC(CCC(=O)NC(N)=O)C(=O)NC(N)=O)cc1 (stereo not given)
GI50: > 100 µM (inactive)
--
compound: CCOC(=O)C(=O)Nc1ccccc1C(F)(F)F
GI50: > 100 µM (inactive)
--
compound: CC(=O)Nc1ccccc1SCCSSCCSc1ccccc1NC(C)=O
GI50: 20.3 µM (inactive)
--
compound: O=C(N/C(=C\c1ccccc1O)c1nc2ccccc2[nH]1)c1ccccc1
GI50: > 100 µM (inactive)
--
compound: Oc1ccc(SCc2cc(O)c(O)c(O)c2)cc1
GI50: 20.5 µM (inactive)
--
compound: C=CCC(NC(=O)C(CC(=O)OC(C)(C)C)NC(=O)OC(C)(C)C)C(=O)OC (stereo not given) (Boc-Asp(OtBu)-[AllylGly]-OMe; configuration not given here)
GI50: > 100 µM (inactive)
--
compound: O=C(O)COc1ccc2c3c1C(=O)CCC3CO2 (stereo not given)
GI50: > 100 µM (inactive)
--
compound: COc1ccc2c(c1O)-c1cc(O)cc3c1[C@@H](C2)N(C)CC3
GI50: 72.8 µM (inactive)
--
compound: CC12CC3(O)OC(O1)C1(COC(=O)c4ccccc4)C3CC21OC1OC(CO)C(O)C(O)C1O (stereo not given)
GI50: > 100 µM (inactive)
--
compound: N#C/C(=C(\O)C(=O)O)c1ccc(-c2cccc3ccccc23)cc1
GI50: > 100 µM (inactive)
--
compound: CCOC(=O)c1c(NC(=O)c2ccccc2)c(C#N)c2n1CCCCC2
GI50: > 100 µM (inactive)

---

# System: DMS-114
# assay-text: NCI tumour cell line growth inhibition, 48 h
The source made the active and inactive calls. Rule as the data show it: active = GI50 up to about 1.1 µM and inactive = higher.
Recorded GI50 by entry
observation-type: GI50

compound: c1ccc2c(c1)OCCc1cn[nH]c1-2
observation-type: GI50
experimental-result: 99.1 µM (inactive)

compound: C=C1C(=O)O[C@H](c2ccoc2)C[C@@H]1[C@@]1(C)CCCC2(C)C(=O)OCC21 (stereo not given in full)
observation-type: GI50
experimental-result: > 100 µM (inactive)

compound: CC12CC(Sc3ccccc3N1)c1ccccc1O2 (stereo not given)
observation-type: GI50
experimental-result: 15.6 µM (inactive)

compound: C[C@H](NC(=O)n1c2ccccc2c2ccccc21)C(=O)O
observation-type: GI50
experimental-result: > 100 µM (inactive)

compound: N#CC(C#N)C(c1ccccc1)c1ccccc1
observation-type: GI50
experimental-result: 70.8 µM (inactive)

compound: Cn1c(=O)[nH]c2nncnc2c1=O
observation-type: GI50
experimental-result: 126 µM (inactive)

compound: O=C1CCC(=O)c2sccc2N1
observation-type: GI50
experimental-result: > 100 µM (inactive)

compound: CC1(C)CCC[C@@]2(C)C1CCC1(C)C(CCc3ccoc3)/C(=C/OS(=O)(=O)O)CCC12 (stereo not given in full)
observation-type: GI50
experimental-result: 34.6 µM (inactive)

compound: O=S(O)CCCSSc1ccccc1
observation-type: GI50
experimental-result: 16.8 µM (inactive)

compound: Nc1ncnc2c1nnn2C1C=C(CO)C(O)C1O (stereo not given)
observation-type: GI50
experimental-result: 44.5 µM (inactive)

---

Recorded GI50 by entry
# Test system: CCRF-CEM
# assay-text: NCI tumour cell line growth inhibition, 48 h
Active and inactive are the calls of the source. Cut-off read from the data, not from the text of the source: active = GI50 up to about 1.1 µM and inactive = higher.
observation-type: GI50

compound: CC1=C(O)C(O)=C(C2=C(O)C(O)=C(C)C(=O)C2=O)C(=O)C1=O
assayed-target: CCRF-CEM
observation-type: GI50
experimental-result: 60 µM (inactive)

compound: CC1(C)CN=C(Nc2ccc(F)c(F)c2)S1
assayed-target: CCRF-CEM
observation-type: GI50
experimental-result: > 100 µM (inactive)

compound: O=C1CCC2(CC1CC[S+]([O-])c1ccccc1)OCCO2 (stereo unspecified)
assayed-target: CCRF-CEM
observation-type: GI50
experimental-result: > 100 µM (inactive)

compound: COc1ccc(NC/C=C/C(=C/COC(C)=O)OC(C)=O)cc1
assayed-target: CCRF-CEM
observation-type: GI50
experimental-result: 1.77 µM (inactive)

compound: Nc1nc(CCC(=O)Nc2cccc(C(F)(F)F)c2)cc(-c2cccc3ccccc23)n1
assayed-target: CCRF-CEM
observation-type: GI50
experimental-result: > 100 µM (inactive)

compound: CC1=C(C(=O)Nc2ccccc2C)C(/C=C/c2ccccc2)C(C(=O)Nc2ccccc2C)=C(C)N1
assayed-target: CCRF-CEM
observation-type: GI50
experimental-result: 82.6 µM (inactive)

compound: Cc1ccc2[nH]c3[nH]c(=O)[nH]c(=O)c3c2c1
assayed-target: CCRF-CEM
observation-type: GI50
experimental-result: > 100 µM (inactive)

compound: C=C(CN(C)C)C(=O)c1ccc(Oc2ccccc2)cc1
assayed-target: CCRF-CEM
observation-type: GI50
experimental-result: 0.272 µM (active)

compound: NC1=CN2c3ccccc3N(CC(=O)N3CCOCC3)C2C=C1 (stereo unspecified)
assayed-target: CCRF-CEM
observation-type: GI50
experimental-result: > 100 µM (inactive)

compound: O=C(CCc1cc(O)cc(O)c1)NCCCNC(=O)CCc1cc(O)cc(O)c1
assayed-target: CCRF-CEM
observation-type: GI50
experimental-result: > 100 µM (inactive)

compound: Cc1cc(NCCCCCCNc2cc(C)nc3ccc(Cl)cc23)c2cc(Cl)ccc2n1
assayed-target: CCRF-CEM
observation-type: GI50
experimental-result: 3.63 µM (inactive)

---

Recorded GI50 by entry
# System: EKVX
# assay-text: NCI tumour cell line growth inhibition, 48 h
Activity calls are given as the source filed them. Rule as the data show it: active = GI50 up to about 1.1 µM and inactive = higher.

molecule: CC1(C)CC[C@]2(C(=O)O)CC[C@]3(C)C(=CC[C@@H]4[C@@]5(C)C[C@H](O)[C@H](O)[C@@](C)(CO)C5=CC[C@]43C)[C@@H]2C1
GI50: 53.2 µM (inactive)

molecule: O=C1C=C(Nc2ccc(Br)cc2)c2ccccc2C1=O
GI50: 18.5 µM (inactive)

molecule: COc1cc(O)c2c(=O)c3ccccc3n(C)c2c1
GI50: 0.555 µM (active)

molecule: COc1ccc(C2=CC(C(C)=C(C(N)=O)C(N)=O)C=C(c3ccc(Br)cc3)C2)c(OC)c1 (stereo not given)
GI50: 44.2 µM (inactive)

molecule: CC(C)=C1CCC(CN2CCCC2)C1=O (stereo not given)
GI50: > 100 µM (inactive)

---

# Tested on: OVCAR-3
# assay-text: NCI tumour cell line growth inhibition, 48 h
The source made the active and inactive calls. No stated cut-off is given here; in the data, active = GI50 up to about 1.1 µM and inactive = higher.
Outcomes: active, inactive

compound: Cn1c(=O)[nH]c2nncnc2c1=O
class: inactive
//
compound: C[C@@H]1C[C@H]2OC(=O)[C@@]3(C)CCC[C@@](C)([C@@H]23)[C@@]1(O)CCc1ccoc1
class: inactive
//
compound: COc1ccccc1NS(=O)(=O)c1ccc2ncn(NS(=O)(=O)c3ccc(Cl)cc3)c(=O)c2c1
class: inactive
//
compound: Cc1ccc2c3ccc4c(c3n(C)c2c1)C(=O)C=CC4=O
class: inactive
//
compound: CC12CC3(O)OC(O1)C1(COC(=O)c4ccccc4)C3CC21OC1OC(CO)C(O)C(O)C1O (stereo not drawn)
class: inactive
//
compound: COc1cc(C2C(Cl)C(=O)N2NC(=O)c2ccc(N)cc2)cc(Br)c1O (stereo not drawn)
class: inactive
//
compound: CCOC(=O)C(=O)Nc1ccccc1C(F)(F)F
class: inactive
//
compound: O=C1c2cccc3cc4ccccc4c(c23)C(=O)N1CCNCCNCCNCCN1C(=O)c2cccc3cc4ccccc4c(c23)C1=O
class: active
//
compound: c1ccc(/C(=N\Nc2nc3ccccc3s2)c2ccccn2)cc1
class: active
//
compound: CC(=O)c1c(P(=O)(OC(C)C)OC(C)C)nn(-c2ccc([N+](=O)[O-])cc2)c1C
class: inactive
//
compound: CC1(C)CCC[C@@]2(C)C1CCC1(C)C(CCc3ccoc3)/C(=C/OS(=O)(=O)O)CCC12 (stereo partly drawn)
class: inactive
//
compound: N/N=C1\C(OC(=O)Nc2cccc(Cl)c2)=Nc2ccccc21
class: inactive
//
compound: O=C1c2c(ccc3c2CCC3)CC12Cc1ccccc1C2
class: inactive
//
compound: O=C1OC(OCC#CCOC2OC(=O)C(Cl)=C2Cl)C(Cl)=C1Cl (stereo not drawn)
class: inactive
//
compound: COc1ccc(Nc2nc3cc(C(F)(F)F)ccc3nc2C(=O)O)cc1
class: inactive
//
compound: O=C(O)/C(=C/c1ccccc1[N+](=O)[O-])c1cccs1
class: inactive
//
compound: NC(CCP(=O)(O)CCC1C=CC=CC1)C(=O)O (stereo not drawn)
class: inactive
//
compound: CC(=O)OC1CCn2nnc(COC(=O)NC(C)C)c21 (stereo not drawn)
class: inactive
//
compound: CCCC(=O)OC1C(C(O)CO)OC2OC(C)(C)OC21 (stereo not drawn)
class: inactive
//
compound: COc1ccc(C2SCc3nc4ccccc4n32)cc1 (stereo not drawn)
class: inactive
//
compound: O=C1C=C(Nc2ccc(Br)cc2)c2ccccc2C1=O
class: inactive
//
compound: O=C(Nc1ccccc1F)c1c(O)nc2sccn2c1=O
class: inactive
//
compound: CCOc1ccc(NC(=O)C2=C(C)NC(C)=C(C(=O)Nc3ccc(OCC)cc3)C2c2ccccc2)cc1
class: inactive
//
compound: O=C1C(Br)=C[C@H]2C3C=CC(Br)(C3=O)[C@@H]12 (stereo partly drawn)
class: inactive
//
compound: Nc1cccc2c1C1=NNC(=O)CC1C2 (stereo not drawn)
class: inactive
//
compound: CC(=O)Nc1cc2c(s1)CCC1CC(=O)NN=C21 (stereo not drawn)
class: inactive
//
compound: C[C@]12CC[C@@H]3c4ccc(OCCN5CCCC5)cc4CC[C@H]3[C@@H]1CCC2=O
class: inactive
//
compound: CCCCCCNC(=O)c1cc(NCc2cc(OC)ccc2OC)ccc1O
class: active
//
compound: [N-]=[N+]=Nc1c(C=O)c(=O)n(-c2ccccc2)c2ccccc12
class: inactive
//
compound: O=c1[c-](-c2ccccc2)[se]c(-c2ccccc2)[n+]1-c1ccccc1
class: inactive
//
compound: COc1cc(C2c3cc4c(cc3CC3COC(=O)N32)OCO4)cc(OC)c1OC (stereo not drawn)
class: inactive
//
compound: c1ccc2c(OCC3CO3)ccc(OCC3CO3)c2c1 (stereo not drawn)
class: inactive
//
compound: Cc1ccc(/N=N/c2c(C)c(C#N)c(=S)n(C3OC(CO)C(O)C(O)C3O)c2C)cc1 (stereo not drawn)
class: inactive
//
compound: COC1CC(OC2OC(CO)C(O)C(O)C2O)/C(=C\C#N)C(O)C1OC (stereo not drawn)
class: inactive
//
compound: Cc1nn(C(=O)c2ccc(Cl)cc2)c2c1C(c1ccccc1)SC(=N)N2 (stereo not drawn)
class: inactive
//
compound: CC(=O)Nc1ccccc1SCCSSCCSc1ccccc1NC(C)=O
class: inactive
//
compound: Cc1ccc(S(=O)(=O)SCc2ccccc2CSS(=O)(=O)c2ccc(C)cc2)cc1
class: inactive
//
compound: CCCN(CCC)C(=O)c1c(Cl)c2cccnc2n2c(C)cnc12
class: inactive
//
compound: COC(=O)c1ccc(NCc2cc(O)ccc2O)cc1
class: inactive
//
compound: N#CC(C#N)C(c1ccccc1)c1ccccc1
class: inactive
//
compound: CC(=O)OCC1OC(n2cc(F)c(=O)[nH]c2=O)C(NC(=O)N(CCCl)N=O)C(OC(C)=O)C1OC(C)=O (stereo not drawn)
class: inactive
//
compound: NS(=O)(=O)c1ccc(NC(=O)c2cc([N+](=O)[O-])cc([N+](=O)[O-])c2)cc1
class: inactive
//
compound: CCN(CC)C(=O)COc1ccc(Br)cc1Br
class: inactive
